target: human IL-17A / human IL-17RA (Homo sapiens (Human)); test: Human IL-17A biochemical assay (HTRF, blocking of IL-17A binding to IL-17RA); conditions: 0.4 nM IL-17A, 0.3 nM IL-17RA, max compound concentration 10 uM
Sequence (Q16552 24-155): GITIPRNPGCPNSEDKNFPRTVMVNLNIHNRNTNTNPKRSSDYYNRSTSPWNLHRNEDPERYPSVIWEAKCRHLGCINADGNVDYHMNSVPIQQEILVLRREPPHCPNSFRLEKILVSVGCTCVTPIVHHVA
Documented pIC50 across a set of compounds
Just so you know, pIC50 here is -log10 of the concentration in molar units; reply with that number alone.

compound	observed-measurement
CC1CN(C2(CO)Cc3ccc(NC(=O)[C@@H](NC(=O)c4ccnn4C)C4CCCCC4)cc3C2)C(=O)N1 (stereo partly shown) [Example 22]	6.02
Cc1nonc1C(=O)N[C@H](C(=O)Nc1ccc2c(c1)CC(c1ccc(F)cc1)(N1C[C@@H](C(C)C)NC1=O)C2)C(C1CC1)C1CC1 (stereo partly shown) [Example 251]	5.82
Cc1nonc1C(=O)N[C@H](C(=O)Nc1ccc2c(c1)CC(C(O)C(F)(F)F)(N1C[C@@H](C(C)C)NC1=O)C2)C(C1CC1)C1CC1 (stereo partly shown) [Example 238]	6.65

Let us examine a further case.
Per the record, COCC1(N2CC(C)NC2=O)Cc2ccc(NC(=O)[C@@H](NC(=O)c3ccnn3C)C3CCCCC3)cc2C1 (stereo partly shown) [Example 2] has pIC50 of 5.96
